Reported Ca values follow for various compounds
Species on record: Rattus norvegicus
protocolDescription: Open TG-GATES - Regimen: Single
Assay type: toxicity, organism-based, Sprague-Dawley
Design: regimen Single, gender Male, age 6 weeks
assayContext: in vivo, po, 1000 mg/kg, 6 h, tissue Plasma, route gavage, dose level High

>  <smi>
Cc1nnc2n1-c1ccc(Cl)cc1C(c1ccccc1Cl)=NC2

>  <Ca (mg/dL)>
11.2

$$$$
>  <smi>
CN/C(=N/CCSCc1nc[nH]c1C)NC#N

>  <Ca (mg/dL)>
10.6

$$$$
>  <smi>
CNC(=C[N+](=O)[O-])NCCSCc1ccc(CN(C)C)o1

>  <Ca (mg/dL)>
10.6

$$$$
>  <smi>
O=C(OC[C@H]1O[C@@H](OC(=O)c2cc(O)c(O)c(OC(=O)c3cc(O)c(O)c(O)c3)c2)[C@H](OC(=O)c2cc(O)c(O)c(OC(=O)c3cc(O)c(O)c(O)c3)c2)[C@@H](OC(=O)c2cc(O)c(O)c(OC(=O)c3cc(O)c(O)c(O)c3)c2)[C@@H]1OC(=O)c1cc(O)c(O)c(OC(=O)c2cc(O)c(O)c(O)c2)c1)c1cc(O)c(O)c(OC(=O)c2cc(O)c(O)c(O)c2)c1

>  <Ca (mg/dL)>
10.6

$$$$
>  <smi>
COC(=O)C1=C(C)NC(C)=C(C(=O)OC)C1c1ccccc1[N+](=O)[O-]

>  <Ca (mg/dL)>
11

$$$$

====

Species: Rattus norvegicus
protocolDescription: Open TG-GATES - Regimen: Daily Repeat
Type: toxicity, organism-based, Sprague-Dawley
Set-up: regimen Daily Repeat, gender Male, age 6 weeks
assayContext: in vivo, po, 100 mg/kg, […], tissue Plasma, route gavage, dose level Low, time 7 day
Reported TP values for the following compounds.

>  <smi>
O=C(OC[C@H]1O[C@@H](OC(=O)c2cc(O)c(O)c(OC(=O)c3cc(O)c(O)c(O)c3)c2)[C@H](OC(=O)c2cc(O)c(O)c(OC(=O)c3cc(O)c(O)c(O)c3)c2)[C@@H](OC(=O)c2cc(O)c(O)c(OC(=O)c3cc(O)c(O)c(O)c3)c2)[C@@H]1OC(=O)c1cc(O)c(O)c(OC(=O)c2cc(O)c(O)c(O)c2)c1)c1cc(O)c(O)c(OC(=O)c2cc(O)c(O)c(O)c2)c1

>  <resultUnits>
g/dL

>  <TP>
6

$$$$
>  <smi>
CN/C(=N/CCSCc1nc[nH]c1C)NC#N

>  <resultUnits>
g/dL

>  <TP>
5.6

$$$$
>  <smi>
COC(=O)C1=C(C)NC(C)=C(C(=O)OC)C1c1ccccc1[N+](=O)[O-]

>  <resultUnits>
g/dL

>  <TP>
5.9

$$$$
>  <smi>
Cc1nnc2n1-c1ccc(Cl)cc1C(c1ccccc1Cl)=NC2

>  <resultUnits>
g/dL

>  <TP>
5.5

$$$$
>  <smi>
CCOc1ccc(NC(C)=O)cc1

>  <resultUnits>
g/dL

>  <TP>
6

$$$$
>  <smi>
CNC(=C[N+](=O)[O-])NCCSCc1ccc(CN(C)C)o1

>  <resultUnits>
g/dL

>  <TP>
5.6

$$$$

====

compounds and their reported Na
Species on record: Rattus norvegicus
protocolDescription: Open TG-GATES - Regimen: Daily Repeat
Type: toxicity, organism-based, Sprague-Dawley
Parameters: regimen Daily Repeat, gender Male, age 6 weeks
assayContext: in vivo, po, 100 mg/kg, […], tissue Plasma, route gavage, dose level Low, time 28 day
measurementLabel: Na (meq/L)

>  <smi>
O=C(OC[C@H]1O[C@@H](OC(=O)c2cc(O)c(O)c(OC(=O)c3cc(O)c(O)c(O)c3)c2)[C@H](OC(=O)c2cc(O)c(O)c(OC(=O)c3cc(O)c(O)c(O)c3)c2)[C@@H](OC(=O)c2cc(O)c(O)c(OC(=O)c3cc(O)c(O)c(O)c3)c2)[C@@H]1OC(=O)c1cc(O)c(O)c(OC(=O)c2cc(O)c(O)c(O)c2)c1)c1cc(O)c(O)c(OC(=O)c2cc(O)c(O)c(O)c2)c1

>  <measurementLabel>
Na

>  <observedResult>
139.4

$$$$
>  <smi>
CNC(=C[N+](=O)[O-])NCCSCc1ccc(CN(C)C)o1

>  <measurementLabel>
Na

>  <observedResult>
141.4

$$$$
>  <smi>
CN/C(=N/CCSCc1nc[nH]c1C)NC#N

>  <measurementLabel>
Na

>  <observedResult>
140.4

$$$$
>  <smi>
COC(=O)C1=C(C)NC(C)=C(C(=O)OC)C1c1ccccc1[N+](=O)[O-]

>  <measurementLabel>
Na

>  <observedResult>
143.8

$$$$
>  <smi>
Cc1nnc2n1-c1ccc(Cl)cc1C(c1ccccc1Cl)=NC2

>  <measurementLabel>
Na

>  <observedResult>
143.6

$$$$
>  <smi>
CCOc1ccc(NC(C)=O)cc1

>  <measurementLabel>
Na

>  <observedResult>
145.2

$$$$
